- ASSAYED_SYSTEM: glucose-6-phosphate dehydrogenase-6-phosphogluconolactonase (Plasmodium falciparum 3D7)
- TEST_DETAILS: inhibition of P. falciparum G6PD activity – biochemical, kinetic NADPH detection, orthogonal assay, SAR follow-up (AID 588593)
- EXPERIMENTAL_CONDITIONS: recombinant PfG6PD-6PGL
Active and inactive are the calls of the source. No rule for the calls is given here.
// one of true for active, false for inactive, no free text

A selection of reference data follows.
COMPOUND	ANSWER_LABEL
Cc1ccccc1C(=O)Nc1nnc(S(=O)(=O)N2CCCCCC2)s1	true
CN(C)CCNC(=O)c1ccc2c(c1)NC(=O)CO2	false
CCN1CCCC1CNC(=O)c1ccc2c(c1)NC(=O)/C(=C/c1cccc3ccccc13)S2 (stereo unspecified)	true
Cc1cccc(/C=C2/Sc3ccc(C(=O)NCCN4CCCC4)cc3NC2=O)c1	true
Cc1cccc(C(=O)Nc2nnc(S(=O)(=O)N3CCCCCC3)s2)c1	true
CCN(CC)CCNC(=O)c1ccc2c(c1)NC(=O)/C(=C\c1ccc(OC)c(OC)c1)S2	true

Returns: the outcome recorded for Cc1cccc(C(=O)Nc2nnc(S(=O)(=O)N3c4ccccc4CC3C)s2)c1 (stereo unspecified) in this assay.
false

Identify the outcome logged in this assay for the compound shown: `CCN(CC)CCNC(=O)c1ccc2c(c1)N(Cc1ccc(C)cc1)C(=O)c1ccccc1S2`
false

What outcome does the record of this test show for `CCCN(CCC)CCNC(=O)c1ccc2c(c1)NC(=O)/C(=C\c1ccc(C)cc1)S2` ?
true

Dear colleague, could you share the recorded outcome for `CCOc1ccc(C(=O)Nc2nnc(S(=O)(=O)N3CCCCCC3)s2)cc1` when you have a moment?
true

Per the assay record, what outcome was assigned to `O=C(NCCN1CCCC1)c1ccc2c(c1)NC(=O)c1ccccc1S2` ?
true

// return assay outcome for `COc1ccc(/C=C2/Sc3ccc(C(=O)NCCN4CCCCCC4)cc3NC2=O)cc1`
false

Hi, do you know how `Cc1ccccc1C(=O)Nc1nnc(S(=O)(=O)N2CCCc3ccccc32)s1` came out in this test?
true

Recorded test outcome, item `CCN(CC)CCNC(=O)c1ccc2c(c1)NC(=O)/C(=C\c1ccccc1Cl)S2`
true
